target: UniProt P12684; test: limited trypsin proteolysis of microsomes, anti-myc immunoblot
Sequence (P12684 1-535 limits assumed): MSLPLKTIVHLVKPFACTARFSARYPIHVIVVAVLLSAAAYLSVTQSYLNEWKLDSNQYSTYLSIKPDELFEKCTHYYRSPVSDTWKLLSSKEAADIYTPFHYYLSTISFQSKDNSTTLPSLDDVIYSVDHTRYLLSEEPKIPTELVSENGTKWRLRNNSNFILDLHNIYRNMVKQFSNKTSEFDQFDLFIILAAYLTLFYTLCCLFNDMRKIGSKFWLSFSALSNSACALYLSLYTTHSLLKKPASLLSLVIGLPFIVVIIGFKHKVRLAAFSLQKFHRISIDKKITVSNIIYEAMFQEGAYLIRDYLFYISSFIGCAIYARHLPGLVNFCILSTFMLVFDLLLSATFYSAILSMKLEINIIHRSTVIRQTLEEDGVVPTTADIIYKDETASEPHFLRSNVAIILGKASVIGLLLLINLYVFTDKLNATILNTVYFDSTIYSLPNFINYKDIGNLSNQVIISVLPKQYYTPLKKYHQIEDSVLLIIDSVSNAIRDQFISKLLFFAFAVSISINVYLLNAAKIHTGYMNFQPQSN
readout: EC50

Which measured EC50 value corresponds to CC(C)=CCC/C(C)=C/CC/C(C)=C/CC/C(C)=C/COP(=O)(O)OP(=O)(O)O [GGPP, geranylgeranyl pyrophosphate] ?
< 200 nM
